system: CYP1A1 mRNA (AhR target gene); assay: CYP1A1 mRNA induction in primary human hepatocytes; assay type: cell-based; details: human
endpoint: EC50 at 24 h (nM)
The response must be a number in nM with no trailing unit.

Given item Clc1cc2c(cc1Cl)Oc1cc(Cl)c(Cl)cc1O2 [TCDD, 2,3,7,8-tetrachlorodibenzo-p-dioxin, reference compound] , the value recorded as its EC50 at 24 h is 0.45

* * *

Documented Relative effect potency (REP) Hepa1c1c7 across a set of molecules
molecular target: mouse AhR (mAhR) (Mus musculus, UniProt P30561); settings: EC50-based, relative to TCDD, murine system
Sequence (P30561 10-848): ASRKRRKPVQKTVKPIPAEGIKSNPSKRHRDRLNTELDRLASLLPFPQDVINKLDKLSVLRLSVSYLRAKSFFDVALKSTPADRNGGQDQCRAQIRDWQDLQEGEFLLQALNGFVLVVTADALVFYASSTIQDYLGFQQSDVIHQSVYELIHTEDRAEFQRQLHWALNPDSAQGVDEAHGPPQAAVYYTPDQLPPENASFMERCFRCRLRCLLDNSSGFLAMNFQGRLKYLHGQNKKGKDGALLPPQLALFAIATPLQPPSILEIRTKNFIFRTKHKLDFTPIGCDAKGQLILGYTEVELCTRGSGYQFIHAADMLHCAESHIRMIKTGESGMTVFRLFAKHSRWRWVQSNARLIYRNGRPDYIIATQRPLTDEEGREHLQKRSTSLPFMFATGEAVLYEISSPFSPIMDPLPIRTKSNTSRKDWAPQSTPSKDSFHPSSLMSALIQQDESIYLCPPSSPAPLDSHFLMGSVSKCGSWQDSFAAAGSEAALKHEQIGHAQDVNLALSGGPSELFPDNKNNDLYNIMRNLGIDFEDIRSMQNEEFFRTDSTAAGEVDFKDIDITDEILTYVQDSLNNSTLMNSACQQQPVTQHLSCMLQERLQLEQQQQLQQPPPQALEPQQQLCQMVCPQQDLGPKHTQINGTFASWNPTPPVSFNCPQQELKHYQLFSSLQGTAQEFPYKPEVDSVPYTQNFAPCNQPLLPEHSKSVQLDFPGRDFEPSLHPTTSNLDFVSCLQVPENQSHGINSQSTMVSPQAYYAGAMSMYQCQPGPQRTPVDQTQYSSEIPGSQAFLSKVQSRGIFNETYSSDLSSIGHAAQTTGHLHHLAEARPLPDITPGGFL
Respond with the number and no other words.

# test-smiles, Relative effect potency (REP) Hepa1c1c7
data = [
    ("Clc1ccc(-c2cc(Cl)c(Cl)c(Cl)c2)cc1Cl", 0.006),
    ("Clc1ccc(-c2cc(Cl)c(Cl)c(Cl)c2Cl)cc1", 0.00004),
    ("Clc1ccc(-c2cc(Cl)c(Cl)c(Cl)c2)cc1", 0.0009),
    ("Clc1ccc(-c2ccc(Cl)c(Cl)c2)cc1Cl", 0.0003),
]

# context switch: different molecule, same Relative effect potency (REP) Hepa1c1c7
Given item Clc1cc(-c2cc(Cl)c(Cl)c(Cl)c2)cc(Cl)c1Cl , the value recorded as its Relative effect potency (REP) Hepa1c1c7 is 0.001
